# System: E. coli mL308 225
# experiment: In Vitro Anti-Bacterial Activity Assay (MIC), gram negative
# Type: cell-based
# condition.summary: Escherichia coli, ML308225, 18 h, gram negative bacteria; read-out: Antibiotic Activity Gram − (MIC)
MIC overview

Need MIC, item CN(C)c1cc(CNC(=O)C2(N)CC2)c(O)c2c1C[C@H]1C[C@H]3[C@H](N(C)C)C(O)=C(C(N)=O)C(=O)[C@@]3(O)C(O)=C1C2=O
> 4 µg/mL

Need MIC, item CN(C)c1cc(CNCC2CCOCC2)c(O)c2c1C[C@H]1C[C@H]3[C@H](N(C)C)C(O)=C(C(N)=O)C(=O)[C@@]3(O)C(O)=C1C2=O
> 4 µg/mL

Need MIC, item CN(C)c1ccc(O)c2c1C[C@H]1C[C@H]3[C@H]([N+](C)(C)C)C(O)=C(C(N)=O)C(=O)[C@@]3(O)C(O)=C1C2=O
> 4 µg/mL

Need MIC, item CC(=O)O[C@H]1[C@H]2C(=C(O)[C@]3(O)C(=O)C(C(N)=O)=C(O)[C@@H](N(C)C)[C@H]13)C(=O)c1c(ccc(CN3CCC(C(F)(F)F)CC3)c1O)[C@@H]2C
< 4 µg/mL

Need MIC, item CC(C)NCc1cc(N(C)C)c2c(c1O)C(=O)C1=C(O)[C@]3(O)C(=O)C(C(N)=O)=C(O)[C@@H](N(C)C)[C@@H]3C[C@@H]1C2
> 4 µg/mL

Need MIC, item CN(C)[C@@H]1C(O)=C(C(N)=O)C(=O)[C@@]2(O)C(O)=C3C(=O)c4c(O)ccc(-c5ccc(CNC#N)cc5)c4C[C@H]3C[C@@H]12
< 4 µg/mL
